So I've got a bunch of compounds here, and I need their TGI values.
- Test system: UACC-257 melanoma
- measurement.protocol: NCI tumour cell line growth inhibition, 48 h
Numbers only, in µM.

Solved cases below.
{"mol.smiles": "O=C1CC(=O)OC(c2ccc([N+](=O)[O-])cc2)O1", "system.name": "UACC-257 melanoma", "TGI, µM": 3.36}
{"mol.smiles": "CN(C)CCCOCCn1c2c(c3ccccc31)CCCC2", "system.name": "UACC-257 melanoma", "TGI, µM": 33.3}

Turning now to a further record.
Ask: TGI of Cc1cc(-c2nnc3n2CCCCC3)c(C)n1-c1ccc(Cl)c(Cl)c1 on UACC-257 melanoma?
Result: 32.3

====

- Test system: MDA-MB-435
Bench note: report the call from Y for active, N for inactive

{"compound": "CCCCCCN(CCCCCC)CC(O)c1ccc2c3c(cccc13)CC2 (configuration not stated)", "class.assignment": "N"}
{"compound": "CN[C@@H]1C[C@H]2O[C@@](C)([C@@H]1OC)n1c3ccccc3c3c4c(c5c6ccccc6n2c5c31)C(=O)N[C@@H]4O", "class.assignment": "Y"}
{"compound": "COC(=O)C1=C(C(=O)OC)SC(=C(Cl)C(=S)Sc2ccccc2N)S1", "class.assignment": "N"}
{"compound": "COC(=O)CCCCCN=Cc1c(O)c(O)c(C(C)C)c2cc(C)c(-c3c(C)cc4c(C(C)C)c(O)c(O)c(C=NCCCCCC(=O)OC)c4c3O)c(O)c12", "class.assignment": "N"}
{"compound": "CSc1ccc(/C=C2\\C=C(CC(=O)NCc3ccc(C(=O)c4ccccc4)cc3)c3cc(F)ccc32)cc1", "class.assignment": "Y"}
{"compound": "Cc1c2ccc(N(C)c3ccnc(Nc4cccc(S(N)(=O)=O)c4)n3)cc2nn1C", "class.assignment": "N"}

With those in mind, consider the next compound.
Ask: Call for entry COc1cc(S(=O)(=O)Nc2ccc(C3=NNC(c4ccccc4)C3)cc2)ccc1F (configuration not stated) :
Result: N

====

- Test system: IGROV1 ovarian
- measurement.protocol: NCI tumour cell line growth inhibition, 48 h
measured.metric: TGI

{"molecule": "O=c1[nH]c2cc3[nH]c4ncccc4c(=O)c3cc2[nH]1", "TGI": "> 10 µM"}
{"molecule": "Cc1ccc(-c2n[nH]c(=O)[nH]2)cc1[N+](=O)[O-]", "TGI": "> 100 µM"}

# batch size: 3; output TGI per entry
1. CCN(CC)c1ccc2c(c1)Nc1cc(=C(C#N)C#N)c3ccccc3c1=N2
2. CCOC(=O)CC1NC(=O)CS1 (stereo unspecified)
3. CSc1ccc(/C=C2\C=C(CC(=O)NCc3ccc(C(=O)c4ccccc4)cc3)c3cc(F)ccc32)cc1

Result:
["> 100 µM", "> 100 µM", "17.7 µM"]

====

So I've got a bunch of compounds here, and I need their TGI values.
- Test system: MALME-3M melanoma
- measurement.protocol: NCI tumour cell line growth inhibition, 48 h
Where a SMILES comes first, the peptide text is derived from it. The star is where a group is joined. Boc = CC(C)(C)OC(=O)*; OBn = c1ccc(CO*)cc1

Solved cases below.
{"compound": "CC(C)(C)OC(=O)NC(Cc1ccccc1)C(=O)NC(Cc1ccccc1)C(=O)NCC(=O)OCc1ccccc1 (stereo not drawn) (Boc-Phe-Phe-Gly-OBn; configuration not given here)", "TGI": "> 100 µM"}
{"compound": "COc1cc(C2S/C(=C/c3ccccc3)C(=O)N2c2ccc(Cl)c(Cl)c2)cc(OC)c1OC (stereo not given)", "TGI": "> 100 µM"}
{"compound": "NNc1nncn1N", "TGI": "> 85.4 µM"}

# batch size: 2; output TGI per entry
1. O=c1[nH]c2cc3[nH]c4ncccc4c(=O)c3cc2[nH]1
2. C/C(O)=C/c1nc2ccc([N+](=O)[O-])cc2nc1/C=C(/C)O

Result:
1. > 10 µM
2. 94.3 µM

The reported measurements were obtained from PubChem BioAssay (NCI).
